B1: ZBTB22 (parent)
chain: FSSSSQEAFAASAVGSGERRGGGP

Variants of: B1
testSummary: protein stability index of a GFP-peptide fusion (GPS, HEK-293T) (PSI 1-6); higher = more stable;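 further: lentivirally expressed fusions sorted by FACS into six bins by GFP to DsRed ratio, PSI derived from sequencing read proportions per bin multiplied by bin number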
conditionParameters: c terminus: a fixed tail appended
Form field: protein stability index (one value per entry).

variantNotation: A13I
protein stability index: 3.04

variantNotation: A11H
protein stability index: 3.02

variantNotation: P24V
protein stability index: 2.92

variantNotation: S4Q
protein stability index: 3.09

variantNotation: S12Y
protein stability index: 1.85

variantNotation: E7S
protein stability index: 2.57

variantNotation: P24D
protein stability index: 3.89

variantNotation: G22F
protein stability index: 2.96

variantNotation: S2I
protein stability index: 2.26

variantNotation: R20V
protein stability index: 3.41

variantNotation: F9M
protein stability index: 4.96

variantNotation: R19Y
protein stability index: 3.32

variantNotation: G17T
protein stability index: 3.08

variantNotation: Q6M
protein stability index: 2.85

variantNotation: V14M
protein stability index: 3.25

variantNotation: A13E
protein stability index: 3.93

variantNotation: A10L
protein stability index: 3.26

variantNotation: S16Y
protein stability index: 2.96

variantNotation: V14W
protein stability index: 1.32

variantNotation: A10P
protein stability index: 3.89

variantNotation: G17I
protein stability index: 2.74

variantNotation: A8T
protein stability index: 3.46

variantNotation: A11I
protein stability index: 2.32

variantNotation: G23N
protein stability index: 3.4

variantNotation: G21T
protein stability index: 2.94

variantNotation: G21P
protein stability index: 3.69

variantNotation: V14Y
protein stability index: 2.76

variantNotation: Q6P
protein stability index: 3.03

variantNotation: F1H
protein stability index: 4.75

variantNotation: A11C
protein stability index: 1.95

variantNotation: S2G
protein stability index: 2.2

variantNotation: G15D
protein stability index: 4.16

variantNotation: S3I
protein stability index: 4.37

variantNotation: G15M
protein stability index: 3.25

variantNotation: V14I
protein stability index: 2.55

variantNotation: S3R
protein stability index: 3.54

variantNotation: A13M
protein stability index: 2.79

variantNotation: S4E
protein stability index: 4.28

variantNotation: P24F
protein stability index: 2.73

variantNotation: Q6K
protein stability index: 1.31

variantNotation: V14G
protein stability index: 3.56

variantNotation: A11N
protein stability index: 3.88

variantNotation: S2Y
protein stability index: 4.54

variantNotation: A10S
protein stability index: 3.22

variantNotation: A13H
protein stability index: 3.17

variantNotation: S4N
protein stability index: 3.52

variantNotation: F1T
protein stability index: 5.39

variantNotation: S3K
protein stability index: 4.3

variantNotation: S3F
protein stability index: 3.37

variantNotation: A11D
protein stability index: 4.39

variantNotation: A11S
protein stability index: 3.88

variantNotation: S4D
protein stability index: 3.98

variantNotation: R20F
protein stability index: 2.97

variantNotation: Q6V
protein stability index: 2.6

variantNotation: S16E
protein stability index: 4.25

variantNotation: R19H
protein stability index: 3.34

variantNotation: S12T
protein stability index: 3.02

variantNotation: E18A
protein stability index: 3.48

variantNotation: G22N
protein stability index: 3.55

variantNotation: Q6N
protein stability index: 3.32

variantNotation: S5P
protein stability index: 4.56

variantNotation: A13C
protein stability index: 2.25

variantNotation: A10E
protein stability index: 4.74

variantNotation: S3L
protein stability index: 4.05

variantNotation: P24M
protein stability index: 2.43

variantNotation: V14L
protein stability index: 3.77
